Tested on: biotinyl-Met-oxazolone
Procedure Summary: self-aminoacylation, catalytic enhancement (BMO) (fold over background); higher = more active; k-Seq, kA / k0A0; sequences stand for … in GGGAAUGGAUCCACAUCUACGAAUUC…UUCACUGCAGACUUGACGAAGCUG
Variants at the floor of the assay were thinned out.
Label condition met when self-aminoacylation >= 3; otherwise condition not met.

Sample answers from the record:
AUUACCCUGGUUAUCGAGUUA [Fam2.1 aminoacylation ribozyme variant]: condition not met
AUUCACCUAGGUAAUCGGGUC [Fam2.2 aminoacylation ribozyme variant]: condition not met
AUUCACCUAGAGCAUCGGGUG [Fam2.2 aminoacylation ribozyme variant]: condition not met
AUUCACCUAGGACAUCGGGAG [Fam2.2 aminoacylation ribozyme variant]: condition not met
CUACCUCAAACAAUCGGACUG [Fam1A.1 aminoacylation ribozyme variant]: condition not met
CCAUACUUCAAGCAAUCGGUA [Fam1B.1 aminoacylation ribozyme variant]: condition not met
CCACGCUACAAGCAAUCGGUC [Fam1B.1 aminoacylation ribozyme variant]: condition not met
CCACACUUCAAGCAAUUGGUC [Fam1B.1 aminoacylation ribozyme variant]: condition not met

Ask: # bool: self-aminoacylation of AUUACCGUUGUCAUCGAGUGA [Fam2.1 aminoacylation ribozyme variant] >= 3
Reply: condition met

Ask: Then CUGCUUCAAACAAUCGCUCUG [Fam1A.1 aminoacylation ribozyme variant] ?
Reply: condition not met

Ask: Then AUUACCCUGGACAUAGAGUGA [Fam2.1 aminoacylation ribozyme variant] ?
Reply: condition met

Ask: Then CUACUUCAAACAAUCCGUCUA [Fam1A.1 aminoacylation ribozyme variant] ?
Reply: condition not met

Ask: Then AUUACCCAGGCCAUCGAGUGA [Fam2.1 aminoacylation ribozyme variant] ?
Reply: condition not met

###

System: biotinyl-Phe-oxazolone
Procedure Summary: self-aminoacylation, catalytic enhancement (BFO) (fold over background); higher = more active; k-Seq, kA / k0A0; sequences stand for … in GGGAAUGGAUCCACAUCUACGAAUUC…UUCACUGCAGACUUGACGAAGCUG
Variants at the floor of the assay were thinned out.
Property Label: self-aminoacylation
Form: value (number only, do not type unit).

Before answering, review these 2 worked examples.
AUUACCGUGGGCAUCGAGUGA [Fam2.1 aminoacylation ribozyme variant]: 34.7
CCACACUUCGAGCAAUCGGUU [Fam1B.1 aminoacylation ribozyme variant]: 0.768

Ask: Please look up its self-aminoacylation: AUUCACCAAGAUCAUCGGGUG [Fam2.2 aminoacylation ribozyme variant]
Reply: 33.2

Ask: Then AUUAGCCUGGGCAUCGAGUGA [Fam2.1 aminoacylation ribozyme variant] ?
Reply: 57.8

Ask: Then CUACUUCAAACAAUAGGGCUG [Fam1A.1 aminoacylation ribozyme variant] ?
Reply: 0.8

###

System: biotinyl-Phe-oxazolone
Procedure Summary: self-aminoacylation, catalytic enhancement (BFO) (fold over background); higher = more active; k-Seq, kA / k0A0; sequences stand for … in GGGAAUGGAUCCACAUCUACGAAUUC…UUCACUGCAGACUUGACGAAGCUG
Fewer inactive variants are shown than the library holds.
Categories are defined by ranges of self-aminoacylation, namely class A = under 4, class B = from 4 up to 30, class C = 30 and over

CCACACUUCAACAAAUCGGUC [Fam1B.1 aminoacylation ribozyme variant]: class B
CUUCCCCUAGGUCAUCGGGUG [Fam2.2 aminoacylation ribozyme variant]: class C
AUUCAUCUAGAUCAUCGGGUG [Fam2.2 aminoacylation ribozyme variant]: class B
AAGCUAGCUAAUAGUCGCAAG [Fam3.1 aminoacylation ribozyme variant]: class B
AUUCAACUAUGUCAUCGGGUG [Fam2.2 aminoacylation ribozyme variant]: class C

Ask: // bin(item) where item = CUACUUCAUACAAUCGGGCUG [Fam1A.1 aminoacylation ribozyme variant]
Reply: class A

Ask: Then AUUACCCUGGUCAGCGAAUGA [Fam2.1 aminoacylation ribozyme variant] ?
Reply: class A

###

System: biotinyl-Val-oxazolone
Procedure Summary: self-aminoacylation, catalytic enhancement (BVO) (fold over background); higher = more active; k-Seq, kA / k0A0; sequences stand for … in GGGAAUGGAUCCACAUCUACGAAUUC…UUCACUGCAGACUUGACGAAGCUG
Fewer inactive variants are shown than the library holds.
A collection of sequences and their measured self-aminoacylation

CUACUUCAAAAAAUCCGUCUG [Fam1A.1 aminoacylation ribozyme variant]: 0.945
GCCCACUUCAAGCAAUCGGUC [Fam1B.1 aminoacylation ribozyme variant]: 1.67
ACGGUUGCUAAUAGUCGCAAG [Fam3.1 aminoacylation ribozyme variant]: 1.32

Ask: Please look up its self-aminoacylation: CCACACUUCGAGCAAUCGGAC [Fam1B.1 aminoacylation ribozyme variant]
Reply: 1.67

Ask: Then ACUCACCUAGGUCAUCGAGUG [Fam2.2 aminoacylation ribozyme variant] ?
Reply: 2.86

Ask: Then UUACUUCAAACAAUUGGUCUG [Fam1A.1 aminoacylation ribozyme variant] ?
Reply: 1.12

###

Tested on: biotinyl-Ile-oxazolone
Procedure Summary: self-aminoacylation, catalytic enhancement (BIO) (fold over background); higher = more active; k-Seq, kA / k0A0; sequences stand for … in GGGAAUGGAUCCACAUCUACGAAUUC…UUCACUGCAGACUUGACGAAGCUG
This sample holds only a part of the variants without activity.
A collection of sequences and their measured self-aminoacylation
Form: value (number only, do not type unit).

Before answering, review these 2 worked examples.
AUUGACCUAGGUCAUCGUGUG [Fam2.2 aminoacylation ribozyme variant]: 1.36
AAGUUUGCUAAUUGUUGCAAG [Fam3.1 aminoacylation ribozyme variant]: 0.929

Ask: Please look up its self-aminoacylation: GUACUUCAAACGAUCGGUCUG [Fam1A.1 aminoacylation ribozyme variant]
Reply: 1.14

Ask: Then CCACUUCAAACAAUCGGACUG [Fam1A.1 aminoacylation ribozyme variant] ?
Reply: 0.9

Ask: Then CCACACUUGAAGGAAUCGGUC [Fam1B.1 aminoacylation ribozyme variant] ?
Reply: 1.28

Ask: Then AUUACCCUGGUAAUCGAGUGG [Fam2.1 aminoacylation ribozyme variant] ?
Reply: 1.38

Ask: Then AUUACCCUGAUCAUCGAGGGA [Fam2.1 aminoacylation ribozyme variant] ?
Reply: 1.09

Ask: Then AUCACCCUGGUCACCGAGUGA [Fam2.1 aminoacylation ribozyme variant] ?
Reply: 6.34

Ask: Then AUUACCCUGGUCAUCGAGCCA [Fam2.1 aminoacylation ribozyme variant] ?
Reply: 2.01

###

A collection of sequences and their measured self-aminoacylation
Tested on: biotinyl-Leu-oxazolone
Procedure Summary: self-aminoacylation, catalytic enhancement (BLO) (fold over background); higher = more active; k-Seq, kA / k0A0; sequences stand for … in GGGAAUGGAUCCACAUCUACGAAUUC…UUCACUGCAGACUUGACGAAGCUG
Fewer inactive variants are shown than the library holds.
Form: value (number only, do not type unit).

Ask: Please look up its self-aminoacylation: AUUCAACUACGUCAUCGGGUG [Fam2.2 aminoacylation ribozyme variant]
Reply: 6.07

Ask: Then CCAGACGUCAAGCAAUCGGUC [Fam1B.1 aminoacylation ribozyme variant] ?
Reply: 1.99

Ask: Then AUUACAAUGGUCAUCGAGUGA [Fam2.1 aminoacylation ribozyme variant] ?
Reply: 6.42

Ask: Then CUACUUCGAACAAUCGGGCUG [Fam1A.1 aminoacylation ribozyme variant] ?
Reply: 1.24

Ask: Then AUUCAUCUAGGUCAUCGGGGG [Fam2.2 aminoacylation ribozyme variant] ?
Reply: 2.31

###

A collection of sequences and their measured self-aminoacylation
Tested on: biotinyl-Trp-oxazolone
Procedure Summary: self-aminoacylation, catalytic enhancement (BWO) (fold over background); higher = more active; k-Seq, kA / k0A0; sequences stand for … in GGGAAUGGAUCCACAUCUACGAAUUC…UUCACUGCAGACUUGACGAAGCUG
Variants at the floor of the assay were thinned out.
Form: value (number only, do not type unit).

Before answering, review these 4 worked examples.
GUACUUCAAACAAUCGGUCGG [Fam1A.1 aminoacylation ribozyme variant]: 15.8
AUUACCCUGGACAUCGAGCGA [Fam2.1 aminoacylation ribozyme variant]: 1.34
AUUCACCUAGAUCAACGGGUG [Fam2.2 aminoacylation ribozyme variant]: 4.38
AAGUUUGCUAAUAGUCGCAUC [Fam3.1 aminoacylation ribozyme variant]: 0.681

Ask: Please look up its self-aminoacylation: ACUACCCUAGUCAUCGAGUGA [Fam2.1 aminoacylation ribozyme variant]
Reply: 5.01

###

A collection of sequences and their measured self-aminoacylation
Tested on: biotinyl-Ile-oxazolone
Procedure Summary: self-aminoacylation, catalytic enhancement (BIO) (fold over background); higher = more active; k-Seq, kA / k0A0; sequences stand for … in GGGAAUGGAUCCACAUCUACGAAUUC…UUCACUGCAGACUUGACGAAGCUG
Variants at the floor of the assay were thinned out.
Form: value (number only, do not type unit).

CUAAUUCAAAGAAUCGGUCUG [Fam1A.1 aminoacylation ribozyme variant]: 0.805
AAGGUUGCUAGUAGUCGCAAG [Fam3.1 aminoacylation ribozyme variant]: 1.18
CUACUUCAAAAAAGCGGUCUG [Fam1A.1 aminoacylation ribozyme variant]: 0.999

Now let's try a different one.
Ask: Provide value of self-aminoacylation for this record tested with biotinyl-Ile-oxazolone: AUUCACCUAGGUCAUGGAGUG [Fam2.2 aminoacylation ribozyme variant]
Reply: 2.31

Just for reference, the supplement of paper PMC9233669 is where these values come from.
